# System: Nrf2-ARE
# EXPERIMENTAL_PROTOCOL: Nrf2 transcriptional activation, cell-based luciferase assay
# MEASUREMENT_CONTEXT: CD = concentration required to double the specific activity of the luciferase reporter; 24 h; read-out: Nrf2 Induction Potencies CD
MEASUREMENT_KIND: EC50 (µM)
Give bare numbers, in µM.

{"columns": ["MOLECULE", "MEASUREMENT_KIND", "OBSERVED_VALUE"],
 "data": [
  ["COc1ccc2[nH]cc(CCNC(C)=O)c2c1 [melatonin, reference compound]", "EC50", 66.4]
]}

For each listed entry, give its EC50.
1. C#CCN(C)C(=O)C1=C(C)NC(C)=C(C(=O)N(C)CC#C)C1c1cccc(OC)c1
2. C#CCN(C)C(=O)C1=C(C)NC(C)=C(C(=O)N(C)CC#C)C1c1ccccc1OC
3. C#CCN(C)C(=O)C1=C(C)NC(C)=C(C(=O)N(C)CC#C)C1c1ccccc1Cl
4. C#CCN(C)C(=O)C1=C(C)NC(C)=C(C(=O)N(C)CC#C)C1c1cccc(Cl)c1Cl

Found:
1: 81.7; 2: 69.4; 3: 96; 4: 77.2

----------
# TARGET_OR_TEST_SYSTEM: Human recombinant cathepsin S (Homo sapiens)
# Construct: purchased Enzo Life Sciences
# Sequence (P25774 115-331): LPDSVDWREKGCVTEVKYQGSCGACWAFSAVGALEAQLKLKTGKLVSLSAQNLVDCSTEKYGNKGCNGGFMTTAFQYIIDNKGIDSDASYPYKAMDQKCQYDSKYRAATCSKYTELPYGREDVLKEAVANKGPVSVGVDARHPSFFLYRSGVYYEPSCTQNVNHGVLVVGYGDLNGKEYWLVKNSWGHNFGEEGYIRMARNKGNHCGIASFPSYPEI
# EXPERIMENTAL_PROTOCOL: Cathepsin S assay (fluorogenic substrate Z-Phe-Arg-AMC)
# Format: biochemical
# MEASUREMENT_CONTEXT: 50 µM inhibitor, 60 min; 100% = no inhibitor; n.i. = residual activity ≥ 95%; read-out: Percentage residual activity of human cathepsin S
Provide the reported remaining activity at 50 µM of each item.
One number for each entry, in %.

{"columns": ["SMI", "TARGET_OR_TEST_SYSTEM", "remaining activity at 50 µM (%)"],
 "data": [
  ["C#CCNC(=O)C1=C(C)NC(C)=C(C(=O)NCC#C)C1c1ccccc1OC", "Human recombinant cathepsin S (Homo sapiens)", 67],
  ["C#CCNC(=O)C1=C(C)NC(C)=C(C(=O)NCC#C)C1c1ccccc1", "Human recombinant cathepsin S (Homo sapiens)", 68]
]}

For each listed entry, give its remaining activity at 50 µM.
1. C#CCNC(=O)C1=C(C)NC(C)=C(C(=O)NCC#C)C1c1ccccc1Br
2. C#CCN(C)C(=O)C1=C(C)NC(C)=C(C(=O)N(C)CC#C)C1c1cccc(OC)c1
3. C#CCNC(=O)C1=C(C)NC(C)=C(C(=O)NCC#C)C1c1ccccc1Cl

Found:
1: 70; 2: 79; 3: 76

----------
# TARGET_OR_TEST_SYSTEM: Human recombinant cathepsin S (Homo sapiens)
# Construct: purchased Enzo Life Sciences
# EXPERIMENTAL_PROTOCOL: Cathepsin S assay (fluorogenic substrate Z-Phe-Arg-AMC)
# Assay type: biochemical
# MEASUREMENT_CONTEXT: 50 µM inhibitor, 60 min; 100% = no inhibitor; n.i. = residual activity ≥ 95%; read-out: Percentage residual activity of human cathepsin S
Label Yes when remaining activity at 50 µM is strictly below 70%; otherwise label No.

Reference set, count: 3
{"columns": ["SMI", "CLASS_LABEL"],
 "data": [
  ["C#CCN(C)C(=O)C1=C(C)NC(C)=C(C(=O)N(C)CC#C)C1c1ccccc1OC", "No"],
  ["C#CCNC(=O)C1=C(C)NC(C)=C(C(=O)NCC#C)C1c1cccc2nonc12", "No"],
  ["C#CCN(C)C(=O)C1=C(C)NC(C)=C(C(=O)N(C)CC#C)C1c1ccccc1Cl", "Yes"]
]}

Let us examine a further case.
Lookup: I'd appreciate it if you could check whether C#CCNC(=O)C1=C(C)NC(C)=C(C(=O)NCC#C)C1c1cccc(Br)c1 has remaining activity at 50 µM smaller than 70%.
Found: Yes
